Molecular target: T1, human IL-11Rα on transfected cells (human, UniProt Q14626 23-422)
T1 sequence: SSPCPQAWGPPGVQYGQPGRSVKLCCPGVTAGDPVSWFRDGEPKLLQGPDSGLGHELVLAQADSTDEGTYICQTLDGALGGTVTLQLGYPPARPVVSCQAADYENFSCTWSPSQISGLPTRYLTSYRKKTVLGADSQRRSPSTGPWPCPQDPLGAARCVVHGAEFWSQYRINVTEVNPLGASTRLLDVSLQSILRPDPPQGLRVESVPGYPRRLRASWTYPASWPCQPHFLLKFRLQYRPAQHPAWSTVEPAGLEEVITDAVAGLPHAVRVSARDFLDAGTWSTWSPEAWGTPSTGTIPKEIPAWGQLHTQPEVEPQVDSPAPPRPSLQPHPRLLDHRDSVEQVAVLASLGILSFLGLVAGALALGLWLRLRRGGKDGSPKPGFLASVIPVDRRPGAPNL
Test: cell-based or functional assay
Criterion met if IC50 is below 0.3 µg/mL. Criterion not met if not; exact matches included in Criterion not met.

Some solved cases for reference:
binder="hu8E2-TS-4 (antibody, V domains shown) VH: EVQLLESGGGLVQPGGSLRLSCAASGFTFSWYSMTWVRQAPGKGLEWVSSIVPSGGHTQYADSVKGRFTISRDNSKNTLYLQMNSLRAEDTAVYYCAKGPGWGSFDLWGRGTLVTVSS VL: DIQMTQSPSSLSASVGDRVTITCQASQDINNYLNWYQQKPGKAPKLLIYDASNLQTGVPSRFSGSGSGTDFTFTISSLQPEDIATYYCQQHEFQSPTFGPGTKVDIK" label_class="Criterion not met"
binder="hu8E2-TS-14 (antibody, V domains shown) VH: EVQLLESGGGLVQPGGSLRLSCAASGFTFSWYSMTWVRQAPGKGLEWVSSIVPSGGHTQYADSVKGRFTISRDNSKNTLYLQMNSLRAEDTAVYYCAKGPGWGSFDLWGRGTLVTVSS VL: DIQMTQSPSSLSASVGDRVTITCQASQDINNYLNWYQQKPGKAPKLLIYDASNLQTGVPSRFSGSGSGTDFTFTISSLQPEDIATYYCQQHDNQSPTFGPGTKVDIK" label_class="Criterion not met"

-- ask Strictly below 0.3 µg/mL in IC50? hu8E2-TS-313 (antibody, V domains shown) VH: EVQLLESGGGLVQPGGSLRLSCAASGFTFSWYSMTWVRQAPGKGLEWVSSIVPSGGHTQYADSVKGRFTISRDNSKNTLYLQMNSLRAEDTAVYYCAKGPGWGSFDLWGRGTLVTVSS VL: DIQMTQSPSSLSASVGDRVTITCQASQDVSGYVEWYQQKPGKAPKLLIYDASNLQTGVPSRFSGSGSGTDFTFTISSLQPEDIATYYCQQYDNLSPTFGPGTKVDIK
-- reply Criterion not met

-- ask Strictly below 0.3 µg/mL in IC50? hu8E2-TS-312 (antibody, V domains shown) VH: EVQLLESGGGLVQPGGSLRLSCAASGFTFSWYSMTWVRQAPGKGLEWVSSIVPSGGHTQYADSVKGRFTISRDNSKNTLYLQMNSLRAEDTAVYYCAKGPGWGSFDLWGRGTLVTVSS VL: DIQMTQSPSSLSASVGDRVTITCQASQDIGQYVEWYQQKPGKAPKLLIYDASNLQTGVPSRFSGSGSGTDFTFTISSLQPEDIATYYCQQYDNLSPTFGPGTKVDIK
-- reply Criterion met
